tested on: Solanum nigrum; assay: Example B2 herbicidal action, post-emergence, pots in glasshouse, damage score 0-10; format: in vivo; conditions: application post-emergence, rate 1000 g/ha, evaluated after 13 days
Where SOLNI damage score (10=total damage to plant; 0=no damage to plant) equals or exceeds 8, the correct label is true; where it does not, the label is false.

Some solved entries appear below for comparison.
O=C(OC1=C(c2c(Cl)cccc2C(F)(F)F)S(=O)(=O)N(CC(F)F)c2nccnc21)Sc1ccccc1    true
CC(C)(C)C(=O)OC1=C(c2cc(C(F)(F)F)ccc2Br)S(=O)(=O)N(CC(F)F)c2nccnc21    true
CCN1c2nccnc2C(O)=C(c2c(F)cccc2C(F)(F)F)S1(=O)=O    true
O=S1(=O)C(c2ccc(Cl)cc2Cl)=C(OCC(F)(F)F)c2nccnc2N1CC(F)(F)F    false
CC(C)C(=O)OC1=C(c2ccccc2C#N)S(=O)(=O)N(CC(F)F)c2nccnc21    true

Confirm if SOLNI damage score (10=total damage to plant; 0=no damage to plant) reported for the molecule CC(C)C(=O)OC1=C(c2cccc(C(F)(F)F)c2Cl)S(=O)(=O)N(CC(F)F)c2nccnc21 is 8 or above.
false

---

Overview of reported IPOHE damage score (10=total damage to plant; 0=no damage to plant) across a group of compounds:
test system: Ipomea hederaceae; experiment: Example B2 herbicidal action, post-emergence, pots in glasshouse, damage score 0-10; format: in vivo; details: application post-emergence, rate 1000 g/ha, evaluated after 13 days
Please give the numeric answer without any surrounding text.

Using known records, supply IPOHE damage score (10=total damage to plant; 0=no damage to plant) for CC(C)C(=O)OC1=C(c2c(Cl)ccc(Cl)c2Cl)S(=O)(=O)N(C)c2nccnc21
9

Using known records, supply IPOHE damage score (10=total damage to plant; 0=no damage to plant) for Cc1ccc(C(F)(F)F)c(C2=C(OC(=O)C(C)(C)C)c3nccnc3N(CC(F)F)S2(=O)=O)c1
8

Using known records, supply IPOHE damage score (10=total damage to plant; 0=no damage to plant) for O=S1(=O)C(c2ccc(I)cc2Cl)=C(O)c2nccnc2N1CC(F)F
4

Using known records, supply IPOHE damage score (10=total damage to plant; 0=no damage to plant) for CCN1c2nccnc2C(O)=C(c2c(F)cccc2C(F)(F)F)S1(=O)=O
9

---

system: Ipomea hederaceae; assay: Example B2 herbicidal action, post-emergence, pots in glasshouse, damage score 0-10; assay type: in vivo; conditions: application post-emergence, rate 1000 g/ha, evaluated after 13 days
Readout Type: IPOHE damage score (10=total damage to plant; 0=no damage to plant)
Please give the numeric answer without any surrounding text.

Consider the worked cases shown below.
CCN1c2nccnc2C(O)=C(c2c(Cl)ccc(Cl)c2Cl)S1(=O)=O [Compound D36]    10
CC(C)(C)C(=O)OC1=C(c2cc(C(F)(F)F)ccc2C(F)(F)F)S(=O)(=O)N(CC(F)F)c2nccnc21 [Compound C44]    10
CC(C)(C)C(=O)OC1=C(c2cccc(Cl)c2Cl)S(=O)(=O)N(CC(F)F)c2nccnc21 [Compound C100]    6
CCSC(=O)OC1=C(c2cc(F)c(Cl)cc2Cl)S(=O)(=O)N(CC(F)F)c2nccnc21 [Compound C88]    9
CCSC(=O)OC1=C(c2c(F)ccc(Br)c2Cl)S(=O)(=O)N(CC(F)F)c2nccnc21 [Compound C107]    6
CCN1c2nccnc2C(O)=C(c2ccccc2C(F)(F)F)S1(=O)=O [Compound D33]    10

Using known records, supply IPOHE damage score (10=total damage to plant; 0=no damage to plant) for O=S1(=O)C(c2c(F)cccc2C(F)(F)F)=C(O)c2nccnc2N1CC(F)F [Compound D39]
10
